assay-system: recombinant human IL-1B (human, UniProt P01584 117-269)
protocol-text: cell-based or functional assay
Quick reference for IC90, rec. human IL-1 B, MRC-5 (IL-6 production) among some binders
All answers are understood in pM, so give the number only.

Here are 5 binders together with their reported answers.
Antibody A3 (antibody, V domains shown) VH: QVQLVQSGAEVKKPGASVKVSCKATGYTFTDYWIAWVRQAPGQGLEWMGSIFPGGDYTNYNEKFKGRVTMTRDTSTSTSYMELSSLRSEDTAIYYCARPYYSNYGHFDYWGQGTLVTVSS VL: EIILTQFPATLSLSPGERATISCRASESVDNSGIGFMNWYQQKPGQAPRLLIYAASNQGSGIPARFSGSGSGTDFTLTISRLEPEDFAVYYCQQNKELPWTFGQGTKLEIK : 162
Antibody B4 (antibody, V domains shown) VH: EVQLVQSGAEVKKPGASVKVSCKASGFSFTGYYMHWVRQAPGQGLEWVGLIIPHNDYTVNNQKFKGRVTMTRDTSTSTAYMELSSLRSEDTAVYYCARSDYYGAMDYWGQGTLVTVSS VL: EIVMTQSPATLSVSPGERATLSCRASQNIGTSIHWYQQKPGQAPRLLIKYASDSKDGIPARFSGSGSGTEFTLTISSLQSEDIAVYYCQQGASWPPFTFGQGTKLEIK : 98
Antibody A4 (antibody, V domains shown) VH: QVQLVQSGAEVKKPGASVKVSCKATGYTFTDYWIAWVRQAPGQGLEWMGSIFPGGDYTNYNEKFKGRVTMTRDTSTSTSYMELSSLRSEDTAVYYCARPYYSNYGHFDYWGQGTLVTVSS VL: EIVLTQSPATLSLSPGERATLSCRASESVDNSGIGFMNWYQQKPGQAPRLLIYAASNQGSGIPARFSGSGSGTDFTLTISRLEPEDFAVYYCQQNKELPWTFGQGTKLEIK : 125
Antibody B1 (antibody, V domains shown) VH: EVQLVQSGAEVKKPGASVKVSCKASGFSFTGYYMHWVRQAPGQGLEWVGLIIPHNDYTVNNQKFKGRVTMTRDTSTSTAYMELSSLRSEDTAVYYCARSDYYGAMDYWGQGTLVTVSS VL: EIVMTQSPATLSVSPGERATLSCRASQNIGTSIHWYQQKPGQAPRLLIKYASNSIYGIPARFSGSGSGTEFTLTISSLQSEDIAVYYCQQGASWPPFTFGQGTKLEIK : 110
Antibody B3 (antibody, V domains shown) VH: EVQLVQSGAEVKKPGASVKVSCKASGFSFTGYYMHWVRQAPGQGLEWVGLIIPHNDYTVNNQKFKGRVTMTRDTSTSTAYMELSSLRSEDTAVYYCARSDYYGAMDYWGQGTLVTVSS VL: EIVMTQSPATLSVSPGERATLSCRASQNIGTSIHWYQQKPGQAPRLLIKYASDSVYGIPARFSGSGSGTEFTLTISSLQSEDIAVYYCQQGASWPPFTFGQGTKLEIK : 257

Please find the next binder below.
Ask | May I ask what IC90, rec. human IL-1 B, MRC-5 (IL-6 production) has been recorded for Antibody A1 (antibody, V domains shown) VH: QVQLVQSGAEVKKPGASVKVSCKATGYTFTNYWIAWVKQAPGQGLEWMGSIFPGGDYTNYNEKFKGKVTMTRDTSTSTSYMELSSLRSEDTAVYYCARPYYSNYGHFDYWGQGTLVTVSS VL: EIVLTQSPATLSLSPGERATLSCRASESVDNSGIGFMNWYQQKPGQAPKLLIYAASNQGSGIPARFSGSGSGTDFTLTISRLEPEDFAMYYCQQNKELPWTFGGGTKLEIK ?
Reply | 131
